target: Cytochrome P450 2C9 (Homo sapiens) (UniProt P11712); experiment: Cytochrome P450 Family 2 Subfamily C Member 9 (CYP2C9) small molecule antagonists: luciferase reporter qHTS assay (AID 1671198); conditions: P450-Glo CYP2C9 enzyme assay, luciferin luminescence; series mostly up to 115 µM; also: nearly all actives have a fitted effect of over 50% in size
Sequence (P11712 whole entry, looked up): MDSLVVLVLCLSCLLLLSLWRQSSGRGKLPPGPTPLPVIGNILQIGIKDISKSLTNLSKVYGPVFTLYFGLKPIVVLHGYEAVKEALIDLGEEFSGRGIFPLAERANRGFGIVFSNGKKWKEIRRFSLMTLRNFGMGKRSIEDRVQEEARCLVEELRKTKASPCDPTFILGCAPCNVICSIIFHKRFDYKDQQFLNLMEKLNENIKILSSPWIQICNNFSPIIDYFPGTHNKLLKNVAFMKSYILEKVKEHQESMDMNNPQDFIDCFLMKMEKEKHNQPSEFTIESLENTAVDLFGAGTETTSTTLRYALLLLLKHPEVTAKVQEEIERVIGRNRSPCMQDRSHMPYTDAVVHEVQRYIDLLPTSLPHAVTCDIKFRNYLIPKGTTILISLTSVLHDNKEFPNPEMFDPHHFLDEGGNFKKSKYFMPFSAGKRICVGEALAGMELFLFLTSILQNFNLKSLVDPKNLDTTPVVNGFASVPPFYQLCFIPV
Records with an inconclusive call do not appear. Activity calls are given as the source filed them. Calls follow the shape of the dose curve; as a rule, active = well fitted inhibition curve with a large enough effect in the repeat runs; inconclusive = weak or mixed curves; inactive = no such curve, though single readings can be large or run the other way.
Your reply should match one of these outcome classes. active, inactive

// known answers, use as guide
> print(dat)
             molecule  label.value
1  Clc1nc2ccccc2nc1Cl     inactive
2       Nc1ccc(F)cc1F     inactive

Task item: Could you check what this test reported for C/C(=C\C(C)CC(C)CC(C)C)C1CC(=O)OC1=O (stereo not drawn) ?
Reply: active

====

assay: qHTS assay to identify small molecule antagonists of the thyroid receptor (TR) signaling pathway (AID 743065); conditions: GH3.TRE-Luc, T3-stimulated luciferase inhibition, 23.5 h; series mostly up to 70.3 µM; also: nearly all actives have a fitted effect of over 55% in size
Records with an inconclusive call do not appear. The source made the active and inactive calls. Calls follow the shape of the dose curve; as a rule, active = well fitted inhibition curve with a large enough effect in the repeat runs; inconclusive = weak or mixed curves; inactive = no such curve, though single readings can be large or run the other way.
Your reply should match one of these outcome classes. active, inactive

// known answers, use as guide
> print(dat)
                                   compound  label.value
1           COc1ccc(CN(CCN(C)C)c2ncccn2)cc1     inactive
2  CC(COc1ccccc1)NC(C)C(O)c1ccc(O)cc1 (stereo not given)     inactive
3  C[C@]12CCC(=O)C=C1[C@@H]1C[C@@H]1[C@H]1[C@@H]3[C@@H]4C[C@@H]4[C@@]4(CCC(=O)O4)[C@@]3(C)CC[C@@H]12       active

Task item: Could you check what this test reported for COc1ccc(C(=O)c2ccc(C)cc2)c(O)c1 ?
Reply: inactive

Task item: Could you check what this test reported for CCCCOc1ccc(N)cc1 ?
Reply: inactive

Task item: Could you check what this test reported for Cc1cccc(C)c1NC(=O)CN1CCCC1 ?
Reply: inactive

Task item: Could you check what this test reported for CCC[Si](OC)(OC)OC ?
Reply: inactive

Task item: Could you check what this test reported for CCOC(OCC)OCC ?
Reply: inactive

Task item: Could you check what this test reported for O=C(O)c1ccncc1 ?
Reply: inactive

Task item: Could you check what this test reported for S=c1[nH][nH]c(=S)s1 ?
Reply: inactive

Task item: Could you check what this test reported for Cc1ccc2ccccc2c1[N+](=O)[O-] ?
Reply: inactive

Task item: Could you check what this test reported for CC(C)CCCCCOC(=O)CS ?
Reply: inactive

Task item: Could you check what this test reported for O=C(O)CCc1nc2ccccc2[nH]1 ?
Reply: inactive

Task item: Could you check what this test reported for CCCCCCCCCCCCCCCCN ?
Reply: inactive

Task item: Could you check what this test reported for C/C(=C(\CCO)SS/C(CCO)=C(\C)N(C=O)Cc1cnc(C)nc1N)N(C=O)Cc1cnc(C)nc1N ?
Reply: inactive

====

target: Nuclear receptor subfamily 1 group I member 2 (Homo sapiens) (UniProt O75469); experiment: Human pregnane X receptor (PXR) small molecule agonists, qHTS assay (AID 1346982); conditions: PXR-Luc HepG2, CYP3A4 luciferase reporter, 24 h; series mostly up to 92.4 µM; also: nearly all actives have a fitted effect of over 35% in size
Sequence (O75469 whole entry, looked up): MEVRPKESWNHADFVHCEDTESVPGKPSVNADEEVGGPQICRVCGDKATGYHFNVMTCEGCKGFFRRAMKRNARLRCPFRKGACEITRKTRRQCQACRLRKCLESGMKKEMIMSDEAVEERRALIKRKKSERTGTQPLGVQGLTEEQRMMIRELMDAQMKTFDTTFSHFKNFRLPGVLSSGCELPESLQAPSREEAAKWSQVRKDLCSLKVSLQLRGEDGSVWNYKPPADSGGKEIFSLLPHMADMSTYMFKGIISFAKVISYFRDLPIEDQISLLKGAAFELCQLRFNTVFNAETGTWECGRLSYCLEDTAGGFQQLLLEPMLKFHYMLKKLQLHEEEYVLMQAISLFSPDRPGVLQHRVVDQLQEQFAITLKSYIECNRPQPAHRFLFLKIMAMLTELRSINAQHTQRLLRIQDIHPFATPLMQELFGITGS
Results filed as inconclusive are left out. Calls of active or inactive are those of the source. Calls follow the shape of the dose curve; as a rule, active = well fitted activation curve with a large enough effect in the repeat runs; inconclusive = weak or mixed curves; inactive = no such curve, though single readings can be large or run the other way.
Your reply should match one of these outcome classes. active, inactive

// known answers, use as guide
> print(dat)
                                     smiles                               test.system  label.value
1  COC(=O)/C=C/C(C)=C\C=C\C(C)=C\C=C\C=C(C)\C=C\C=C(C)\C=C\C(=O)O  Nuclear receptor subfamily 1 group I member 2 (Homo sapiens) (UniProt O75469)       active
2                                NCCOCCOCCN  Nuclear receptor subfamily 1 group I member 2 (Homo sapiens) (UniProt O75469)     inactive
3    COc1ccc(C(=O)Nc2ccccc2)cc1[N+](=O)[O-]  Nuclear receptor subfamily 1 group I member 2 (Homo sapiens) (UniProt O75469)       active

Task item: Could you check what this test reported for Cc1cc(C)c(C)c(O)c1 ?
Reply: inactive
